Listed here: items and their measured Bliss excess.
# System: CTB-1 (B-Cell Non-Hodgkin's Lymphoma);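 further: after 72 h of two-drug dosing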
# test protocol: Bliss excess, mean over the matrix (fraction); higher = more synergy

{"compound": "Cc1cc2ncnn2cc1Nc1ncc2c(n1)n(C1CCOCC1)c(=O)n2C [AZD7648] + CN(C)CCCOc1ccc(-c2ccc3ncc4c(c3c2)n(C2CCOCC2)c(=O)n4C)cn1 [AZD0156] (first compound max 10 µM, 7x7, partner max 1 µM)", "target or test system": "CTB-1 (B-Cell Non-Hodgkin's Lymphoma)", "Bliss excess": -0.0485}
{"compound": "Cc1cc2ncnn2cc1Nc1ncc2c(n1)n(C1CCOCC1)c(=O)n2C [AZD7648] + C=CCn1c(=O)c2cnc(Nc3ccc(N4CCN(C)CC4)cc3)nc2n1-c1cccc(C(C)(C)O)n1 [AZD1775] (first compound max 10 µM, partner max 1 µM)", "target or test system": "CTB-1 (B-Cell Non-Hodgkin's Lymphoma)", "Bliss excess": -0.0542}
{"compound": "CC1(C)CCC(CN2CCN(c3ccc(C(=O)NS(=O)(=O)c4ccc(NCC5CCOCC5)c([N+](=O)[O-])c4)c(Oc4cnc5[nH]ccc5c4)c3)CC2)=C(c2ccc(Cl)cc2)C1 [Venetoclax] + Cn1cnc2c(F)c(Nc3ccc(Br)cc3Cl)c(C(=O)NOCCO)cc21 [Selumetinib] (first compound max 1 µM, 7x7, partner max 3 µM)", "target or test system": "CTB-1 (B-Cell Non-Hodgkin's Lymphoma)", "Bliss excess": -0.0475}
{"compound": "COc1cccc(OCCCN)c1-c1cc(Nc2cnc(C#N)cn2)n[nH]1 [Prexasertib] + Cc1cc2ncnn2cc1Nc1ncc2c(n1)n(C1CCOCC1)c(=O)n2C [AZD7648] (first compound max 1 µM, 7x7, partner max 10 µM)", "target or test system": "CTB-1 (B-Cell Non-Hodgkin's Lymphoma)", "Bliss excess": -0.0352}

Source of measurements: the supplement of paper PMC11061612
